# system tested: G2019S LRRK2 (Homo sapiens, UniProt Q5S007, G2019S)
# Construct: expressed in transfected cells; host or cells: HEK293 (ATCC CRL-1573), transient transfection, ubiquitin promoter
# Sequence (Q5S007 whole entry G2019S): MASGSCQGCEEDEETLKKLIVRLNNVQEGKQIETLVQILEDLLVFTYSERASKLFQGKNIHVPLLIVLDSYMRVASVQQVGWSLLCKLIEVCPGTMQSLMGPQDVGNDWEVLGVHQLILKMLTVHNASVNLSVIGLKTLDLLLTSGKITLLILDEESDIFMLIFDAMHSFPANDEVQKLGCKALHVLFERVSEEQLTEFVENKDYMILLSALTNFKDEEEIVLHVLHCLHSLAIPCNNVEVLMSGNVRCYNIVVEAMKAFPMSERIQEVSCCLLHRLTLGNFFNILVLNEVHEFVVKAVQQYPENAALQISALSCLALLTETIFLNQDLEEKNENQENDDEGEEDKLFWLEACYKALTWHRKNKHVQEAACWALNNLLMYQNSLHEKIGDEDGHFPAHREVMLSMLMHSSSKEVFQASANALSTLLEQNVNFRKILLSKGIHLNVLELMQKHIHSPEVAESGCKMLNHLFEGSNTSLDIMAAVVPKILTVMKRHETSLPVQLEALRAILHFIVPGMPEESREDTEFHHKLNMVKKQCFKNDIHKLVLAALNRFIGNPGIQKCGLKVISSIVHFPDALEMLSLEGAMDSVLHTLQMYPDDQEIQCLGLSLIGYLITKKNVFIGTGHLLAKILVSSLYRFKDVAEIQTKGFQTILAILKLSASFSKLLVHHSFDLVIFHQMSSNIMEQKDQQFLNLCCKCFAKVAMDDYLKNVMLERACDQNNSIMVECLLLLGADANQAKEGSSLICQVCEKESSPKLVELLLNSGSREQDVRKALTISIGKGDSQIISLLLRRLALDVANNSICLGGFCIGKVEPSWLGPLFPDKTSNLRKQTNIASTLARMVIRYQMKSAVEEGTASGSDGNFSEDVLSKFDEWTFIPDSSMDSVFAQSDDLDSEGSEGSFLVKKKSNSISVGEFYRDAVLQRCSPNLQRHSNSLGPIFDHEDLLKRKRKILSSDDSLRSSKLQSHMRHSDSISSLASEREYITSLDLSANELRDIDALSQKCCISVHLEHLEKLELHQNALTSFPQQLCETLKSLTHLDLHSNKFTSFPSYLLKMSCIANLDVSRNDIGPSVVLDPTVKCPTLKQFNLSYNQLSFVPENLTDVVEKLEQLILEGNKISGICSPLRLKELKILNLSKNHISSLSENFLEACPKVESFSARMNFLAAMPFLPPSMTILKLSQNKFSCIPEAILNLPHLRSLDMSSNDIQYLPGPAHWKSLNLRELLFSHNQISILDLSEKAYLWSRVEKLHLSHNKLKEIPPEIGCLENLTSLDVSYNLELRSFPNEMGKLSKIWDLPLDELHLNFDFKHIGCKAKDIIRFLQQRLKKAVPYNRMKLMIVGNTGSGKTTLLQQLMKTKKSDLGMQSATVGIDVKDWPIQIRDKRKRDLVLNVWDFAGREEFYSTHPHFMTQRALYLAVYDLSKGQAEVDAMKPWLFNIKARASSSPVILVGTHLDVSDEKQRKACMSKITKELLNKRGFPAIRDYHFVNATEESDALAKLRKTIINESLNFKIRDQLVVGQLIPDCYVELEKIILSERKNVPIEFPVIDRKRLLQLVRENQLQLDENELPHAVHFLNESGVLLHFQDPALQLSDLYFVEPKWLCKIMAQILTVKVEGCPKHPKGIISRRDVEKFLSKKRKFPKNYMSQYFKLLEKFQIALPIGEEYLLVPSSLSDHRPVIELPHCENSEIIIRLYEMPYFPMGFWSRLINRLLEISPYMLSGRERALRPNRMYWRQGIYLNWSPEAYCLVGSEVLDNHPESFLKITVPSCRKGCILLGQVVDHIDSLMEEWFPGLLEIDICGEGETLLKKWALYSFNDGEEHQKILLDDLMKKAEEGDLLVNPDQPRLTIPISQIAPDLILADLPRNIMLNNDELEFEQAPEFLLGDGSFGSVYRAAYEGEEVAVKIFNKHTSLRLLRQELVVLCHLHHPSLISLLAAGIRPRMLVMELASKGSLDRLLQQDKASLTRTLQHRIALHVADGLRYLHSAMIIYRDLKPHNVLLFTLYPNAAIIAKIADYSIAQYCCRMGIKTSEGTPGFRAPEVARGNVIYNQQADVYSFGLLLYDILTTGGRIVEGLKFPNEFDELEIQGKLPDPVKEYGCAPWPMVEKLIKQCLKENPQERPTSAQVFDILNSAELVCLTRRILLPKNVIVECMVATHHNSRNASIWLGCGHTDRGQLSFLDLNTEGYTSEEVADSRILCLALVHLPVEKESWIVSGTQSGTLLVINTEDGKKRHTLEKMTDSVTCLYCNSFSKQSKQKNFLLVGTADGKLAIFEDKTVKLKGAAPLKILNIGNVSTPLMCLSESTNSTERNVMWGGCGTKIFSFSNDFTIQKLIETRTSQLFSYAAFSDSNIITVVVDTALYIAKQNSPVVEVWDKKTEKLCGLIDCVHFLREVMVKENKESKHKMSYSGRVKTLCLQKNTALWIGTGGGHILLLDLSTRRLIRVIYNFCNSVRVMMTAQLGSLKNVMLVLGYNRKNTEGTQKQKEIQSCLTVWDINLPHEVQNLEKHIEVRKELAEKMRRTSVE
# assay protocol: LRRK2 degradation assay, G2019S LRRK2-HiBit expressed from plasmid in HEK293 cells
# Assay type: cell-based
# setup conditions: HEK293 cells transfected with HiBit-tagged G2019S LRRK2, 24 hours compound incubation
readout: DC50

>>> result("CC(C)Oc1ccc2[nH]nc(-c3cc(N4CCN(CC(F)(F)C5CCN(CC6CCN(c7ccc8c(c7)C(=O)N(C7CCC(=O)NC7=O)C8=O)CC6)CC5)CC4)ncn3)c2c1 (centres unmarked)")
"10 to 50 nM"
>>> result("CC(C)Oc1ccc2[nH]nc(-c3cc(N4CCN(CC5CCN(CC6CCN(c7ccc8c(c7)C(=O)N(C7CCC(=O)NC7=O)C8=O)CC6)CC5)[C@@H](C)C4)ncn3)c2c1 (some centres unmarked)")
"< 10 nM"
>>> result("C[C@H]1CN(c2cc(-c3n[nH]c4ccc(OC5(C)CC5)cc34)ncn2)CCN1CCOCCN1CCN(c2ccc3c(c2)C(=O)N(C2CCC(=O)NC2=O)C3=O)CC1 (some centres unmarked)")
"< 10 nM"
>>> result("CC(C)Oc1ccc2[nH]nc(-c3cc(N4CCN(CCOCCOCCOc5ccc6c(c5)C(=O)N(C5CCC(=O)NC5=O)C6=O)[C@@H](C)C4)ncn3)c2c1 (some centres unmarked)")
"≥ 100 nM"
>>> result("C[C@H]1CN(c2cc(-c3n[nH]c4ccc(OC5(C)CC5)cc34)ncn2)CCN1CCOCCOc1ccc2c(c1)C(=O)N(C1CCC(=O)NC1=O)C2=O (some centres unmarked)")
"< 10 nM"
